- target-desc: Activated human plasma kallikrein (Enzyme Research Laboratories, HPKa 1303) (human, UniProt P03952 20-638)
- Sequence (P03952 20-638 limits assumed): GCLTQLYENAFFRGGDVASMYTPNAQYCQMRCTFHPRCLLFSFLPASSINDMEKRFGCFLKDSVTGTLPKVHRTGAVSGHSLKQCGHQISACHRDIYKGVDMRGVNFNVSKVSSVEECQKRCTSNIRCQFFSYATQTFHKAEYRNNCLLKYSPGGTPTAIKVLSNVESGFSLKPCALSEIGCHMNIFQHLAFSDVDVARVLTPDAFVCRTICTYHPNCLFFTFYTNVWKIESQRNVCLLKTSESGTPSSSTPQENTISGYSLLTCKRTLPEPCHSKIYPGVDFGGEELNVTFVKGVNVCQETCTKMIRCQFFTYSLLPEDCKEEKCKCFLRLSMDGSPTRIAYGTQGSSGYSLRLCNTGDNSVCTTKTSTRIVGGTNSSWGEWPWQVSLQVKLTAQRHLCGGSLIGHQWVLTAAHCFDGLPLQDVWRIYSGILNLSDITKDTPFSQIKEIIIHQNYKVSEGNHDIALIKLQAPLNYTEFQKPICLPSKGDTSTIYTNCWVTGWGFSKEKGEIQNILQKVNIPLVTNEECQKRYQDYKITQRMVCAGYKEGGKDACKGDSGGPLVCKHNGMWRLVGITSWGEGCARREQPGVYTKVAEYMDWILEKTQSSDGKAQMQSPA
- test: cell-based or functional assay
Bridge positions count the residues as written; N and C are the ends. Square brackets hold non-standard residues; d marks the D form. mXylyl = xylyl linker from dibromoxylene joining the two cysteines; des‑NH2 = missing amino-terminal amine group; Igl = N[C@H](C(=O)O)C1Cc2ccccc2C1; Chg = N[C@H](C(=O)O)C1CCCCC1; Tle = CC(C)(C)[C@H](N)C(=O)O; Ac5c = NC1(C(=O)O)CCCC1; Aze = O=C(O)[C@@H]1CCN1; Mpa = O=C(O)CCS
Exercise: for every item that follows, state its recorded Avg. IC50.
State the answer as a number, implicitly in nM.

Q. Would you kindly share the measured Avg. IC50 for {des‑NH2}-CP[Igl]CR[Tle]-NH2 (bridge 1-4; not fully specified (residue 1, bridges); printed as [mXylyl(1,4)](des-NH2)C-P-Ind-CR-Tbg-NH2) [R2218] ?
A. 3

Q. Again, but for [Mpa][Aze][Chg]CR[Tle]-NH2 (linker 1-4 via mXylyl) [R2194]
A. 127

Q. Again, but for [Mpa][Ac5c]A[Chg]CR[Tle]LRY-NH2 (linker 1-5 via mXylyl) [R2170]
A. 2.1
